Data provenance is PubChem BioAssay (NCI).

- Tested on: SK-OV-3 ovarian
- procedure-summary: NCI tumour cell line growth inhibition, 48 h
Kindly state TGI for each of the entries shown.

QUERY: Find TGI (SK-OV-3 ovarian) for the entry `Nc1nc(N)c(-c2ccccc2)c(CCC(=O)Nc2ccc(Cl)cc2)n1`
RESULT: > 100 µM

QUERY: Find TGI (SK-OV-3 ovarian) for the entry N#Cc1c2c(c(-c3cccs3)n(C3OC(CO)C(O)C(O)C3O)c1=S)CCc1ccccc1-2 (centres undefined)
RESULT: > 100 µM

QUERY: Find TGI (SK-OV-3 ovarian) for the entry `CN(C)CCNc1nc2ccccc2c2c(=O)c3ccccc3sc12`
RESULT: 19 µM

QUERY: Find TGI (SK-OV-3 ovarian) for the entry CC1(C)CC[C@]2(C(=O)O)[C@H](O)C[C@]3(C)C(=CC[C@@H]4[C@@]5(C)CC[C@H](OC6OC(C(=O)O)C(O)C(O)C6O)C(C)(C)[C@@H]5CC[C@]43C)[C@@H]2C1 (some centres undefined)
RESULT: > 100 µM

###

- Test system: LXFL 529 NSCLC
- procedure-summary: NCI tumour cell line growth inhibition, 48 h
Kindly state TGI for each of the entries shown.

QUERY: Quick check: TGI of `Nc1ccc(C(=O)N/C(=C\c2cccc([N+](=O)[O-])c2)c2nc3c4c(ccc3[nH]2)C(=O)c2ccccc2C4=O)cc1` ?
RESULT: > 100 µM

QUERY: Quick check: TGI of `COC(=O)Cc1nc2ccccc2o1` ?
RESULT: > 100 µM

QUERY: Quick check: TGI of `CC1=C(C(=O)Nc2ccccc2)C(c2ccc(C(C)C)cc2)C(C(=O)Nc2ccccc2)=C(C)N1` ?
RESULT: > 67.7 µM

QUERY: Quick check: TGI of COC(=O)C1CC(C(=O)OC)c2nc3cc(C)c(C)cc3nc21 (stereo not drawn) ?
RESULT: > 100 µM

QUERY: Quick check: TGI of Cc1ccc(NC(=O)CCC(=O)C(C#N)c2ccccc2)cc1C (stereo not drawn) ?
RESULT: > 100 µM

QUERY: Quick check: TGI of `COC[C@@H](Cc1ccc(OC)c(OC)c1)[C@@H](COC)Cc1ccc(OC)c(OC)c1` ?
RESULT: > 100 µM

QUERY: Quick check: TGI of CC(C)N(C(C)C)P(OCCC#N)OC1CC(n2cnc3c(=O)[nH]cnc32)OC1COC(=O)NCCCCCCNC(=O)OC(C)(C)c1ccc(-c2ccccc2)cc1 (stereo not drawn) ?
RESULT: 32.5 µM

QUERY: Quick check: TGI of COc1ccc2c(c1)OCCC1=C2SCC2(C)CCN=C12 (stereo not drawn) ?
RESULT: > 100 µM

###

- System: UACC-257 melanoma
- procedure-summary: NCI tumour cell line growth inhibition, 48 h
measured-quantity: TGI

QUERY: Quick check: TGI of `COc1ccc(C2=NOP(c3ccccc3)(c3ccccc3)(c3ccccc3)C2)cc1` ?
RESULT: 99.2 µM

QUERY: Quick check: TGI of `COc1ccccc1NS(=O)(=O)c1ccc2ncn(NS(=O)(=O)c3ccc(Cl)cc3)c(=O)c2c1` ?
RESULT: > 100 µM

QUERY: Quick check: TGI of `C=C1c2nc3ccccc3n2C=C(c2ccc(OC)cc2)N1c1ccc(OCCN2CCOCC2)cc1` ?
RESULT: 17.6 µM

QUERY: Quick check: TGI of `c1ccc2nc(OCCN3CC3)ccc2c1` ?
RESULT: 32.8 µM

QUERY: Quick check: TGI of COc1cc(C2c3cc4c(cc3[C@@H](Nc3ccc(N)cc3)C3COC(=O)[C@H]23)OCO4)cc(OC)c1O (some centres undefined) ?
RESULT: 28 µM

QUERY: Quick check: TGI of `C[N+](C)([O-])CCCNc1ccnc2cccc([N+](=O)[O-])c12` ?
RESULT: > 100 µM

QUERY: Quick check: TGI of `CC(=O)n1ccc2c(Cl)ncnc21` ?
RESULT: > 100 µM

QUERY: Quick check: TGI of OCC(O)C(O)C(O)C(O)/C=N/Nc1nc(O)c(/C=C2\C=Nc3ccccc32)[nH]1 (centres undefined) ?
RESULT: > 100 µM

QUERY: Quick check: TGI of `N=C(N)SCCc1ccccn1` ?
RESULT: > 100 µM

QUERY: Quick check: TGI of C#CCCCC(=O)N(C(=O)CS(=O)CC)c1ccccc1 (centres undefined) ?
RESULT: > 100 µM

QUERY: Quick check: TGI of `Nc1nc(N)c(-c2ccccc2)c(CCC(=O)Nc2ccc(Cl)cc2)n1` ?
RESULT: > 100 µM

QUERY: Quick check: TGI of `CN1B(c2ccccc2)N(C)C(=O)N(C)C1=O` ?
RESULT: > 100 µM

QUERY: Quick check: TGI of `CCCCCCNC(=O)Oc1ccc(/C(=C(\C)c2ccccc2)c2ccc(OCCN(CC)CC)cc2)cc1` ?
RESULT: 3.17 µM

QUERY: Quick check: TGI of `COC(=O)Cc1nc2ccccc2o1` ?
RESULT: > 100 µM
